- System: P388 leukemia ip, CD2F1 mice, survival T/C
- test: NCI In Vivo Anticancer Drug Screen. Data for tumor model P388 Leukemia (intraperitoneal) in CD2F1 (CDF1) mice
- condition.notes: endpoint: median survival time; dose: 50.0 mg/kg/injection; schedule: Q01DX005 (ip); vehicle: saline with Tween-80; higher = longer survival
Toxic doses and inconclusive results are not listed.
# T/C annotations
measurement.name: T/C

• Cc1cc2oc3c(ccc(=O)n3C)c(=O)c2c(C)c1Cl = 104 % of control
• Cn1cc(N)c2ccccc2c1=O = 103 % of control
• CC(C)(C=C(c1ccccc1)c1ccccc1)C=C(c1ccccc1)c1ccccc1 = 95 % of control
• O=C1c2cccc3c([N+](=O)[O-])ccc(c23)C(=O)N1CCCN1CCOCC1 = 114 % of control
• NCCCC(C(=O)O)N(C(=O)OCc1ccccc1)C(=O)OCc1ccccc1 (stereo not drawn) = 97 % of control
• CCC(=O)c1ccc(Oc2c3ccccc3nc3ccccc23)cc1 = 108 % of control
• CC(=O)Nc1ccc(S(=O)(=O)NCCSS(=O)(=O)O)cc1 = 101 % of control
• Cc1cc(C)nc(NS(=O)(=O)c2ccc(N=Cc3c4ccccc4nc4cc(Cl)ccc34)cc2)n1 = 93 % of control
• Cc1nc2ccccc2c(=O)n1/N=C/c1ccc(Cl)cc1Cl = 92 % of control
• CCOc1ccc(N2CC(=O)N3CCCC(C)N3C(=O)C2)cc1 (stereo not drawn) = 101 % of control
• COc1c(C=O)c2c(c(C=O)c1OC)OCO2 = 100 % of control
• O=[N+]([O-])c1ccc2c(N3CCC(CCCC4CCN(c5ncnc6cc([N+](=O)[O-])ccc56)CC4)CC3)ncnc2c1 = 89 % of control
• COc1cc2oc3c(C)c(=O)cc4oc(-c5ccccc5)cc(c2c2c1CCC(c1ccccc1)O2)c43 (stereo not drawn) = 124 % of control
• CC1C2CCN(C)C1Cc1ccc(O)cc12 (stereo not drawn) = 94 % of control
• COC(=O)Nc1cn2ccsc2n1 = 105 % of control
• COc1ccc(S(=O)(=O)N/N=C\c2cc([N+](=O)[O-])ccc2O)c(OC)c1OC = 107 % of control
• CCCCCCN(CCCCCC)CC(O)c1cc(-c2ccccc2)nc2cc(Cl)ccc12 (stereo not drawn) = 115 % of control
• CCC1SC(=S)NC1=O (stereo not drawn) = 92 % of control
• CN(CC(=O)NC(Cc1c[nH]c2ccccc12)C(=O)O)C(=O)OCc1ccccc1 (stereo not drawn) = 96 % of control
• COC1=CCC2=C(CC[C@H]3[C@H]2CCP3C)C1 (stereo partly drawn) = 101 % of control
• CCCCN=NN/C=C/C(C)(C)C = 115 % of control
• C/C=C/COc1cc2c(cc1C(C)c1ccc(OC)cc1)OCO2 (stereo not drawn) = 107 % of control
• CC(C)=CCC/C(C)=C\C1OC(C)C(C)O1 (stereo not drawn) = 104 % of control

###

- System: P388 leukemia ip, CD2F1 mice, survival T/C
- test: NCI In Vivo Anticancer Drug Screen. Data for tumor model P388 Leukemia (intraperitoneal) in CD2F1 (CDF1) mice
- condition.notes: endpoint: median survival time; dose: 200.0 mg/kg/injection; schedule: Q01DX009 (ip); vehicle: saline with Tween-80
- Procedure: The antitumor activity of compounds was measured in mice bearing transplantable tumors. Survival or tumor size were measured and the results are expressed as the measurement made in the treated group (T) divided by the measurement made in the vehicle treated control group (C). The tumor model used in this assay is P388 Leukemia (intraperitoneal) in CD2F1 (CDF1) mice
Toxic doses and inconclusive results are not listed. Rule for the calls: active = survival T/C of 150% or more; inactive = T/C below 125% in these data.
Outcome codes: active, inactive

* C1=CCC2COCC2C1 (configuration not stated) | inactive
* Cc1c(C)c2c(c(C)c1OP(=O)(N1CC1)N1CC1)CCC(C)(CCCC(C)CCCC(C)CCCC(C)C)O2 (configuration not stated) | inactive
* COC(=O)C1(C)OS(=O)(=O)c2ccccc21 (configuration not stated) | inactive
* COC(=O)C(O)NC(N)=O (configuration not stated) | inactive
* CC(=O)Nc1nc(C(C)(C)C)c([N+](=O)[O-])s1 | inactive
* CCCCCCCCCCCCCCCCCCCCCC(=O)OC | inactive
* Nc1cc(Cl)ccc1[N+](=O)[O-] | inactive
* CCC12COC3(C)CCC(C)(OC1)N23 (configuration not stated) | inactive
* CCCSCC(C)C | inactive
* CC(C)OC(=S)NC(=O)c1ccccc1 | inactive
* Nc1nc(=O)n(C2CC(O)C(O)C(CO)O2)cc1F (configuration not stated) | inactive
* O=C(c1ccccc1)C(C(c1ccccc1)N1CCOCC1)N1CCOCC1 (configuration not stated) | inactive
* CN(C)c1ccc(/C=N/N=C2\C(=O)Nc3c(Cl)cc(Cl)cc32)cc1 | inactive
* COC(=O)/C(Br)=C/N(Cc1ccccc1)Cc1ccccc1 | inactive
* CSc1ccc(NC(=O)ON2CCCCC2)cc1 | inactive
* Oc1c(C(c2ccccc2)N2CCOCC2)ccc2ccccc12 (configuration not stated) | inactive
* O=S(=O)(Oc1ccc2ccccc2c1)C(F)(F)C(F)(F)C(F)(F)C(F)(F)F | inactive
* O=C1SC(c2ccccc2)=S=C1c1ccccc1 | inactive
* CN(N=O)c1ccc(/C=C/c2ccnc3ccccc23)cc1 | active
* O=C1/C(=C/c2ccccc2O)SC(=S)N1C1CC1 | inactive
* O=C1CCCc2c1[nH]c1ccccc21 | inactive
* CC(=O)N(O)c1ccccc1-c1ccccc1 | inactive
* CC(C)(C)N=C(Cc1ccccc1)N1CCOCC1 | inactive
* C=CC(=C)CCC=C(C)C | inactive
* CN(CCCN(C)N=Nc1ccccc1C(=O)O)N=Nc1ccccc1C(=O)O | inactive
* O=C(Nc1ccccc1C(=O)c1ccccc1)Nc1ccc(F)cc1[N+](=O)[O-] | inactive
* CC(C)(C)N=C(CCC(C#N)(C#N)CCC(=NC(C)(C)C)Nc1c(Cl)cccc1Cl)Nc1c(Cl)cccc1Cl | inactive
* Cc1ccc(C)c(NC(=O)Oc2cc(C)c(Cl)c(C)c2)c1 | inactive
* COC(=O)c1ccoc1 | inactive
* CCCCCCCC[As](CCCCCCCC)SCC1OC(OC(C)=O)C(OC(C)=O)C(OC(C)=O)C1OC(C)=O (configuration not stated) | inactive
* CCCCCCC(=O)/C=C/c1ccc(OC)cc1OC | inactive
* CCOC(=O)c1cc(=O)n(C)c2ccc(OCC)cc12 | inactive
* CC(C)=NOC1CCCCC1OS(=O)(=O)c1ccc(C)cc1 (configuration not stated) | inactive
* O=C(O)CCCc1ccccc1[N+](=O)[O-] | inactive
* O=C1COC(c2ccccc2O)=NN1Cc1ccccc1 | inactive
* CC1=NNB(O)c2sccc21 | inactive
* Nc1nc(N)c2cc(S(=O)(=O)c3cccc(C(F)(F)F)c3)ccc2n1 | inactive
* O=C(O)CC(=O)Nc1ccccc1S | inactive
* O=C(Nc1ccc(Br)cc1)c1ccccc1 | inactive
* CCCCN(CCCC)c1nsc(N2CCOCC2)n1 | inactive
* Clc1ccc(N=C(SSC(Cl)(Cl)Cl)SSC(Cl)(Cl)Cl)cc1 | inactive
* Cc1ccc(NC(=O)Oc2ccccc2F)c([N+](=O)[O-])c1 | inactive
